Where do these numbers come from? They come from patent US8501936B2.

target: human FAK (Homo sapiens (Human), UniProt Q05397); conditions: read-out: FAK IC50
Sequence (Q05397 whole entry): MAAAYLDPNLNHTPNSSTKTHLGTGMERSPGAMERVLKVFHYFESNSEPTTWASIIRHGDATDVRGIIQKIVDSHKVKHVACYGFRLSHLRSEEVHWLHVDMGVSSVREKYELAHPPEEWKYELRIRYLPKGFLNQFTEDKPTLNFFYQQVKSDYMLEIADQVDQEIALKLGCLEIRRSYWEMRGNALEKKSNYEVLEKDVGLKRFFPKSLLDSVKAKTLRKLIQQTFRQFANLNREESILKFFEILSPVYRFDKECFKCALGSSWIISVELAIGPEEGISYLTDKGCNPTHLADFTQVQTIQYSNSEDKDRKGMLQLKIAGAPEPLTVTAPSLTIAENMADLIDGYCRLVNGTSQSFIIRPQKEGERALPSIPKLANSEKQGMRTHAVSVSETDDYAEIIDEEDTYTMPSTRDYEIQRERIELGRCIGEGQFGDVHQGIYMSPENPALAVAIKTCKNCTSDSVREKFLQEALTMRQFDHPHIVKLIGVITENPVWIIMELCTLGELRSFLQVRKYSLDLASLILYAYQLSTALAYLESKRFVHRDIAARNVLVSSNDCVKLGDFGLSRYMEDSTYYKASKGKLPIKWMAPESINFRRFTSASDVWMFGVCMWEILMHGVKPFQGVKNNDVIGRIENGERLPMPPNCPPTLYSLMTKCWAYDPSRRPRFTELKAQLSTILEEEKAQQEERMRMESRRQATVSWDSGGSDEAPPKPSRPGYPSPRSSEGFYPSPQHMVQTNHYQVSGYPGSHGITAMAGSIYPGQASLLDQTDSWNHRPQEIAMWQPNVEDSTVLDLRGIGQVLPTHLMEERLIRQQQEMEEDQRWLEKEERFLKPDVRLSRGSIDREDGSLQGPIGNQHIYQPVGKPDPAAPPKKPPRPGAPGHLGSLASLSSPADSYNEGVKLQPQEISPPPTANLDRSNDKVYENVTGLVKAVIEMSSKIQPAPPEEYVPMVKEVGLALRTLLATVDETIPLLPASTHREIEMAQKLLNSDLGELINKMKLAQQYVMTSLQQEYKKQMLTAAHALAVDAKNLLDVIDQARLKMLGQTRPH
reportedProperty: IC50

Record request: IC50 value, item CN(C)C(=O)CN1CCc2ccc(Nc3nc4c(-c5ccccc5OCC(F)F)cccn4n3)cc2CC1
2.43 µM

Record request: IC50 value, item CN1CCN(Cc2cccc(Nc3nc4cccc(-c5ccc(S(C)(=O)=O)cc5)n4n3)c2)CC1
2.86 µM

Record request: IC50 value, item CN1CCN(c2cccc(Nc3nc4c(C#Cc5ccccc5N(C)S(C)(=O)=O)cccn4n3)c2)CC1
2.42 µM

Record request: IC50 value, item CN1CCN(c2ccc(Nc3nc4c(-c5cccc(CN(C)S(C)(=O)=O)c5)cccn4n3)cc2)CC1
3 µM

* * *

target: human JAK2 (Homo sapiens (Human)); conditions: read-out: JAK2 IC50
// reported IC50 for each item listed
Numeric answer only, unit nM assumed.

The cases that follow already have their IC50 on record.
Record request: IC50 value, item CN1CCC(c2ccc(Nc3nc4c(NCc5cccnc5N(C)S(C)(=O)=O)cccn4n3)cc2)CC1
40.3

Record request: IC50 value, item COc1ccccc1-c1cccn2nc(Nc3ccc(N4CCOCC4)cc3)nc12
20

Record request: IC50 value, item COc1cc(Cl)ccc1-c1cccn2nc(Nc3ccc4c(c3)CCN(CC(=O)N(C)C)C4)nc12
21.2

Record request: IC50 value, item CN(c1ncccc1CNc1cccn2nc(Nc3ccc(S(C)(=O)=O)cc3)nc12)S(C)(=O)=O
17.3

Record request: IC50 value, item CN1CCN(c2ccc(Nc3nc4c(-c5ccc(S(C)(=O)=O)cc5)cc(F)cn4n3)cc2)CC1
31.6

Next:
Record request: IC50 value, item CS(=O)(=O)c1ccc(-c2cccn3nc(Nc4ccc5c(c4)CCNCC5)nc23)c(OCC(F)F)c1
61.9

Record request: IC50 value, item CS(=O)(=O)c1ccc(-c2cccn3nc(NCCc4cccnc4)nc23)cc1
1980

Record request: IC50 value, item CS(=O)(=O)c1ccc(-c2cccc3nc(Nc4ccc(CN5CCS(=O)(=O)CC5)cc4)nn23)cc1
0.66

* * *

target: UniProt:Q05397; conditions: read-out: FAK IC50
reportedProperty: pIC50
Remember the convention: pIC50 equals -log10 of concentration in molar.

Record request: pIC50 value, item CN1CCN(c2ccc(Nc3nc4c(NCC5CCCN5S(C)(=O)=O)cccn4n3)cc2)CC1 (centres unmarked)
6.06

* * *

// reported IC50 for each item listed
molecular target: human FAK (Homo sapiens (Human), UniProt Q05397); conditions: read-out: FAK IC50
Numeric answer only, unit µM assumed.

The cases that follow already have their IC50 on record.
Record request: IC50 value, item CS(=O)(=O)c1ccc(-c2cccn3nc(NCCc4cccnc4)nc23)cc1
10

Record request: IC50 value, item CN(c1ccccc1CNc1cccn2nc(Nc3ccccc3)nc12)S(C)(=O)=O
0.189

Record request: IC50 value, item CN1CCN(c2ccc(Nc3nc4c(OCc5ccccc5C#N)cccn4n3)cc2)CC1
2.56

Turning now to a further record.
Record request: IC50 value, item CN1CCN(c2cccc(Nc3nc4c(-c5ccc(P(C)(C)=O)cc5)cccn4n3)c2)C(=O)C1
10

* * *

// reported log10(IC50) for each item listed
biological target: human JAK2 (Homo sapiens (Human), UniProt O60674); settings: read-out: JAK2 IC50
Sequence (O60674 815-1132): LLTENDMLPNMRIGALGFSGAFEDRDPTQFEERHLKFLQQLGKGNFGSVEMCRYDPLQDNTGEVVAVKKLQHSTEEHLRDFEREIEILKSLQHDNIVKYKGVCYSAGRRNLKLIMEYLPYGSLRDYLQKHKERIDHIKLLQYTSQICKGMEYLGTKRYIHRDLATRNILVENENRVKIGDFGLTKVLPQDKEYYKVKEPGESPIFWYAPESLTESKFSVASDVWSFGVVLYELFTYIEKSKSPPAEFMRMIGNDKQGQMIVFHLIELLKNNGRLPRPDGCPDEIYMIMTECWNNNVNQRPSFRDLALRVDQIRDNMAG
Record value = log10 of IC50 given in nM.

Record request: log10(IC50) value, item COc1ccc(Nc2nc3cccc(-c4ccc(CN5CCS(=O)(=O)CC5)cc4)n3n2)cc1
0.00

Record request: log10(IC50) value, item CN(c1ncccc1Nc1cccn2nc(Nc3ccc(OCCN4CCCC4)cc3)nc12)S(C)(=O)=O
1.52

Record request: log10(IC50) value, item CN1CCN(c2ccc(Nc3nc4c(NCc5cccc(S(C)(=O)=O)c5)cccn4n3)cc2)CC1
2.42

Record request: log10(IC50) value, item FC(F)(F)c1ccc(-c2cccn3nc(Nc4cnn(CCN5CCCC5)c4)nc23)cc1
0.96

Record request: log10(IC50) value, item CN1CCN(c2ccc(Nc3nc4c(NCc5ccccc5CN(C)S(C)(=O)=O)cccn4n3)cc2)CC1
1.55

Record request: log10(IC50) value, item CN1CCN(c2cccc(Nc3nc4c(-c5ccc(S(C)(=O)=O)cc5)cccn4n3)c2)CC1
0.11

Next:
Record request: log10(IC50) value, item c1ccc(Nc2nc3ccccn3n2)cc1
3.04

Record request: log10(IC50) value, item COc1ccc(C(F)(F)F)cc1-c1cccn2nc(Nc3ccc4c(c3)CCN(CCS(C)(=O)=O)CC4)nc12
1.10

Record request: log10(IC50) value, item CS(=O)(=O)c1ccc(OCC(F)F)c(-c2cccn3nc(Nc4ccc5c(c4)CCNCC5)nc23)c1
2.78

Record request: log10(IC50) value, item COc1cccc(CNc2cccn3nc(Nc4cccnc4)nc23)c1
2.91

Record request: log10(IC50) value, item CN1CCN(c2ccc(Nc3nc4c(Nc5ccccc5CS(C)(=O)=O)cccn4n3)cc2)CC1
1.34

Record request: log10(IC50) value, item COc1ccccc1-c1cccn2nc(Nc3ccc(N4CCN(C)CC4)cc3)nc12
1.58
